The origin of these recorded values is patent US12383512B2.

Test: Plasma and brain pharmacokinetics after single intravenous or intraperitoneal administration to the mouse
Type: in vivo
Conditions: male, plasma, ip, 3 mg/kg, plasma, IP 3 mg/kg, read-out: AUC0-t
Measurement kind: AUC(0-t) (ng·h/mL)
Please give a number only; it is taken to be in ng·h/mL.

Req: # AUC(0-t) lookup, item C=C(C)[C@@H]1CC(O)C(C)=C[C@H]1c1c(O)cc(CCCCC)cc1O (stereo partly drawn) [6-OH CBD, Alpha 6-hydroxy cannabidiol]
Resp: 533

----------
Experiment: Plasma and brain pharmacokinetics after single intravenous or intraperitoneal administration to the mouse
Format: in vivo
Settings: male, plasma, IV 1 mg/kg
Measurement kind: Cmax (ng/mL)
Response body: numeric value in ng/mL, unit text excluded.

Req: Using the record for C=C(C)[C@@H]1CC(O)C(C)=C[C@H]1c1c(O)cc(CCCCC)cc1O (stereo partly drawn) [6-OH CBD, Alpha 6-hydroxy cannabidiol] , report its Cmax.
Resp: 775

----------
Experiment: Plasma and brain pharmacokinetics after single intravenous or intraperitoneal administration to the mouse
Format: in vivo
Conditions: male, plasma, IP 30 mg/kg
Measurement kind: Cmax (ng/mL)
Number in ng/mL, nothing else.

Req: Given the compound C=C(C)[C@@H]1CC(O)C(C)=C[C@H]1c1c(O)cc(CCCCC)cc1O (stereo partly drawn) [6-OH CBD, Alpha 6-hydroxy cannabidiol] , what is its reported Cmax?
Resp: 11000

----------
Assay: Plasma and brain pharmacokinetics after single intravenous or intraperitoneal administration to the mouse
Format: in vivo
Settings: male, brain, iv, 1 mg/kg, brain, IV 1 mg/kg, read-out: AUC0-t
Measurement kind: AUC(0-t) (µg·h/mL)
Dear colleague, please return just the value in µg·h/mL, with no unit written.

Req: Consider the molecule shown here: C=C(C)[C@@H]1CC(O)C(C)=C[C@H]1c1c(O)cc(CCCCC)cc1O (stereo partly drawn) [6-OH CBD, Alpha 6-hydroxy cannabidiol] What is its recorded AUC(0-t)?
Resp: 0.679

----------
Assay: Plasma and brain pharmacokinetics after single intravenous or intraperitoneal administration to the mouse
Type: in vivo
Settings: male, brain, ip, 30 mg/kg, brain, IP 30 mg/kg, read-out: AUC0-t
Measurement kind: AUC(0-t)

Req: May I ask what AUC(0-t) has been recorded for C=C(C)[C@@H]1CC(O)C(C)=C[C@H]1c1c(O)cc(CCCCC)cc1O (stereo partly drawn) [6-OH CBD, Alpha 6-hydroxy cannabidiol] ?
Resp: 25000 ng·h/mL

----------
Assay: Plasma and brain pharmacokinetics after single intravenous or intraperitoneal administration to the mouse
Assay type: in vivo
Conditions: male, brain/plasma, other: intravenous and intraperitoneal, all IV and IP dose groups, read-out: Brain: plasma ratio for Cmax, range
Measurement kind: Kp

Req: Name the recorded Kp for C=C(C)[C@@H]1CC(O)C(C)=C[C@H]1c1c(O)cc(CCCCC)cc1O (stereo partly drawn) [6-OH CBD, Alpha 6-hydroxy cannabidiol] .
Resp: 1.23 to 2.03

----------
Assay: Plasma and brain pharmacokinetics after single intravenous or intraperitoneal administration to the mouse
Type: in vivo
Details: male, plasma, ip, 30 mg/kg, plasma, IP 3, 10 or 30 mg/kg (each dose level), read-out: Tmax (converted)
Measurement kind: Tmax (min)
Enter your answer as a number in min; do not include the unit.

Req: Any idea what its Tmax is? The compound is C=C(C)[C@@H]1CC(O)C(C)=C[C@H]1c1c(O)cc(CCCCC)cc1O (stereo partly drawn) [6-OH CBD, Alpha 6-hydroxy cannabidiol]
Resp: 15

----------
Experiment: Plasma and brain pharmacokinetics after single intravenous or intraperitoneal administration to the mouse
Assay type: in vivo
Conditions: male, plasma, ip, 30 mg/kg, plasma, IP 30 mg/kg, read-out: AUC0-t
Measurement kind: AUC(0-t) (ng·h/mL)
Quick reminder: number only, in ng·h/mL, skip the unit.

Req: Consider the compound C=C(C)[C@@H]1CC(O)C(C)=C[C@H]1c1c(O)cc(CCCCC)cc1O (stereo partly drawn) [6-OH CBD, Alpha 6-hydroxy cannabidiol] and give its measured AUC(0-t).
Resp: 17700

----------
Assay: Plasma and brain pharmacokinetics after single intravenous or intraperitoneal administration to the mouse
Type: in vivo
Conditions: male, brain, ip, 10 mg/kg, brain, IP 10 mg/kg, read-out: AUC0-24
Measurement kind: AUC(0-t) (ng·h/mL)
Return type: number; implicit unit ng·h/mL.

Req: AUC(0-t) lookup needed for C=C(C)[C@@H]1CC(O)C(C)=C[C@H]1c1c(O)cc(CCCCC)cc1O (stereo partly drawn) [6-OH CBD, Alpha 6-hydroxy cannabidiol] , thanks.
Resp: 3940

----------
Assay: Plasma and brain pharmacokinetics after single intravenous or intraperitoneal administration to the mouse
Format: in vivo
Settings: male, brain, IP 30 mg/kg
Measurement kind: Cmax (ng/mL)
Numeric only. Scale: ng/mL

Req: # get_value(readout='Cmax', item= C=C(C)[C@@H]1CC(O)C(C)=C[C@H]1c1c(O)cc(CCCCC)cc1O (stereo partly drawn) [6-OH CBD, Alpha 6-hydroxy cannabidiol] )
Resp: 13500

----------
Assay: Plasma and brain pharmacokinetics after single intravenous or intraperitoneal administration to the mouse
Format: in vivo
Settings: male, plasma, ip, 10 mg/kg, plasma, IP 10 mg/kg, read-out: AUC0-24
Measurement kind: AUC(0-t) (ng·h/mL)
Provide only the numeric value, understood in ng·h/mL.

Req: If you can, please state the reported AUC(0-t) value of C=C(C)[C@@H]1CC(O)C(C)=C[C@H]1c1c(O)cc(CCCCC)cc1O (stereo partly drawn) [6-OH CBD, Alpha 6-hydroxy cannabidiol] .
Resp: 2600

----------
Experiment: Plasma and brain pharmacokinetics after single intravenous or intraperitoneal administration to the mouse
Type: in vivo
Conditions: male, plasma, ip, 30 mg/kg, plasma, IP 3, 10 or 30 mg/kg, read-out: t1/2 range across dose levels
Measurement kind: half-life

Req: May I ask what half-life has been recorded for C=C(C)[C@@H]1CC(O)C(C)=C[C@H]1c1c(O)cc(CCCCC)cc1O (stereo partly drawn) [6-OH CBD, Alpha 6-hydroxy cannabidiol] ?
Resp: 0.993 to 1.08 h

----------
Assay: Plasma and brain pharmacokinetics after single intravenous or intraperitoneal administration to the mouse
Assay type: in vivo
Conditions: male, brain, iv, 1 mg/kg, brain, IV 1 mg/kg, read-out: Tmax (converted)
Measurement kind: Tmax (min)
Hi! Could you send only the number? It should be in min, unit omitted.

Req: State the recorded Tmax for this entry: C=C(C)[C@@H]1CC(O)C(C)=C[C@H]1c1c(O)cc(CCCCC)cc1O (stereo partly drawn) [6-OH CBD, Alpha 6-hydroxy cannabidiol]
Resp: 7.02

----------
Experiment: Plasma and brain pharmacokinetics after single intravenous or intraperitoneal administration to the mouse
Assay type: in vivo
Conditions: male, brain, ip, 3 mg/kg, brain, IP 3 mg/kg, read-out: t1/2 (converted)
Measurement kind: half-life
Answer by giving the amount and then stating its unit.

Req: Reported half-life for C=C(C)[C@@H]1CC(O)C(C)=C[C@H]1c1c(O)cc(CCCCC)cc1O (stereo partly drawn) [6-OH CBD, Alpha 6-hydroxy cannabidiol] : what is it?
Resp: 34.1 min

----------
Test: Plasma and brain pharmacokinetics after single intravenous or intraperitoneal administration to the mouse
Format: in vivo
Conditions: male, brain, iv, 1 mg/kg, brain, IV 1 mg/kg, read-out: t1/2 (converted)
Measurement kind: half-life (min)
# unit: min | format: bare number

Req: // query half-life value for entry C=C(C)[C@@H]1CC(O)C(C)=C[C@H]1c1c(O)cc(CCCCC)cc1O (stereo partly drawn) [6-OH CBD, Alpha 6-hydroxy cannabidiol]
Resp: 18.7

----------
Test: Plasma and brain pharmacokinetics after single intravenous or intraperitoneal administration to the mouse
Assay type: in vivo
Details: male, brain, ip, 30 mg/kg, brain, IP 30 mg/kg, read-out: t1/2 (converted)
Measurement kind: half-life

Req: Requested field: half-life. Item: C=C(C)[C@@H]1CC(O)C(C)=C[C@H]1c1c(O)cc(CCCCC)cc1O (stereo partly drawn) [6-OH CBD, Alpha 6-hydroxy cannabidiol]
Resp: 55.1 min

----------
Assay: Plasma and brain pharmacokinetics after single intravenous or intraperitoneal administration to the mouse
Format: in vivo
Settings: male, plasma, iv, 1 mg/kg, plasma, IV 1 mg/kg, read-out: AUC0-t
Measurement kind: AUC(0-t) (ng·h/mL)
Dear colleague, please return just the value in ng·h/mL, with no unit written.

Req: Requested field: AUC(0-t). Item: C=C(C)[C@@H]1CC(O)C(C)=C[C@H]1c1c(O)cc(CCCCC)cc1O (stereo partly drawn) [6-OH CBD, Alpha 6-hydroxy cannabidiol]
Resp: 342
